# TARGET: DLG1_3, Q12959
# Sequence (Q12959 457-571): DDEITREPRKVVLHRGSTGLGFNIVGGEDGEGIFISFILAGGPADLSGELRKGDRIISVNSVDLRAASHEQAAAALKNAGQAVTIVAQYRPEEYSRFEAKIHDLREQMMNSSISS
# ASSAY EXPLANATION: holdup assay
# Set-up: key: below the threshold = too weak to quantify, mostly under pKd 3.1 to 4
# SETTINGS: plain residues with an end cap or a label only (N-terminal biotin on a linker: ado-ado)
MEASURE: pKd

// known answers, use as guide
[
  {
    "BINDER": "QRYPGNQTTC [CCL24, O00175]",
    "pKd": 3.76
  },
  {
    "BINDER": "WAKEKQHTRL [SLC17A1, Q14916]",
    "pKd": "below the threshold"
  },
  {
    "BINDER": "SKQFDKNAYV [CLDN10, P78369]",
    "pKd": "below the threshold"
  },
  {
    "BINDER": "QKNKDREYYV [NRXN3, Q9HDB5]",
    "pKd": "below the threshold"
  },
  {
    "BINDER": "FLVTEFNVML [DFNB31, Q9P202]",
    "pKd": "below the threshold"
  }
]

Kindly note the recorded pKd for PLATCDETSI [SEMA4F, O95754] , which is below the threshold

Kindly note the recorded pKd for QLGSPTADLA [SIPA1, Q96FS4] , which is below the threshold

Kindly note the recorded pKd for MLPANYVEAI [NEB, P20929] , which is below the threshold

Kindly note the recorded pKd for QLKSGRDSTV [TMEM178A, Q8NBL3] , which is 3.85

Kindly note the recorded pKd for DAAHHDESNC [FMNL3, Q8IVF7] , which is below the threshold

Kindly note the recorded pKd for PSVYSRSQYV [CLDN8, P56748] , which is below the threshold

Kindly note the recorded pKd for PDSYHRRDFW [U2AF2, P26368] , which is 3.72

Kindly note the recorded pKd for RDYTQSSSSL [GRM5, P41594] , which is below the threshold

Kindly note the recorded pKd for YAEKRMLTEV [KCNA6, P17658] , which is below the threshold
